# system.under.test: Aurora A bound to TPX2 (Homo sapiens, UniProt O14965)
# Construct: human Aurora A kinase domain (residues 122-403 in the pET24-d vector); His-tag (cleaved yes)
# experiment.notes: Aurora A kinase activity and inhibition in the presence of TPX2
# measurement.setup: TPX2 present
observed.property: pIC50
Value format note: pIC50 is -log10 of concentration (mol/L); just state the number.

Give reported pIC50 for `CCc1ccc(N=C2SC(=Cc3ccnc(Nc4ccc(C(=O)O)cn4)c3)C(=O)N2C)cc1` (Aurora A bound to TPX2 (Homo sapiens, UniProt O14965)) 5.85

---

# system.under.test: Aurora A (Homo sapiens, UniProt O14965)
# Sequence (O14965 1-403): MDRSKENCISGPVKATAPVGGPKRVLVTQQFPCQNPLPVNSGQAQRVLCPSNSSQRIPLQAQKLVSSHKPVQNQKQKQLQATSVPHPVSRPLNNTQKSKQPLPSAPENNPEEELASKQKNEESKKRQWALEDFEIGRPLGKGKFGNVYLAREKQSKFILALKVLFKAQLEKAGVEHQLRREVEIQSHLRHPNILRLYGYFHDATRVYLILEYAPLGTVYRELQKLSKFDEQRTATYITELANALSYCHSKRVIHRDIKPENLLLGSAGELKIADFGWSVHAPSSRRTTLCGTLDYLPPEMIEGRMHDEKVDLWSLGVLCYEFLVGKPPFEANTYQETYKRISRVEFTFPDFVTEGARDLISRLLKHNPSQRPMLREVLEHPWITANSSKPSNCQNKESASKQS
# experiment.notes: Active site directed binding competition assay, KD (DiscoveRx)
# measurement.setup: free Aurora A
observed.property: pKd
Worth noting: pKd values are minus log10 of concentrations stated in mol/L.

Please look at `CCc1ccc(N=C2SC(=Cc3ccnc(Nc4ccc(C(=O)O)cn4)c3)C(=O)N2C)cc1` and tell me its recorded pKd on Aurora A (Homo sapiens, UniProt O14965). 8.30

---

# system.under.test: AuroraB/INCENP complex (Homo sapiens)
# Sequence (Q96GD4 whole entry): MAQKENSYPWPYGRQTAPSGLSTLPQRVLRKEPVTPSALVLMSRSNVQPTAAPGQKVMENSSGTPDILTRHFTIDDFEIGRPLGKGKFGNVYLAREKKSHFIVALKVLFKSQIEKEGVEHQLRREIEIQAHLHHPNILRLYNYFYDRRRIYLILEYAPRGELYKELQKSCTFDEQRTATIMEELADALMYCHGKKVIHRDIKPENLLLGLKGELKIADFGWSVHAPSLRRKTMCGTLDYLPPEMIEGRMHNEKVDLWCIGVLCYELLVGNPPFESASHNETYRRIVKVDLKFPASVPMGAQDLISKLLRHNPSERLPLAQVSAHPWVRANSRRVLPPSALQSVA
# Sequence (Q9NQS7 whole entry partner): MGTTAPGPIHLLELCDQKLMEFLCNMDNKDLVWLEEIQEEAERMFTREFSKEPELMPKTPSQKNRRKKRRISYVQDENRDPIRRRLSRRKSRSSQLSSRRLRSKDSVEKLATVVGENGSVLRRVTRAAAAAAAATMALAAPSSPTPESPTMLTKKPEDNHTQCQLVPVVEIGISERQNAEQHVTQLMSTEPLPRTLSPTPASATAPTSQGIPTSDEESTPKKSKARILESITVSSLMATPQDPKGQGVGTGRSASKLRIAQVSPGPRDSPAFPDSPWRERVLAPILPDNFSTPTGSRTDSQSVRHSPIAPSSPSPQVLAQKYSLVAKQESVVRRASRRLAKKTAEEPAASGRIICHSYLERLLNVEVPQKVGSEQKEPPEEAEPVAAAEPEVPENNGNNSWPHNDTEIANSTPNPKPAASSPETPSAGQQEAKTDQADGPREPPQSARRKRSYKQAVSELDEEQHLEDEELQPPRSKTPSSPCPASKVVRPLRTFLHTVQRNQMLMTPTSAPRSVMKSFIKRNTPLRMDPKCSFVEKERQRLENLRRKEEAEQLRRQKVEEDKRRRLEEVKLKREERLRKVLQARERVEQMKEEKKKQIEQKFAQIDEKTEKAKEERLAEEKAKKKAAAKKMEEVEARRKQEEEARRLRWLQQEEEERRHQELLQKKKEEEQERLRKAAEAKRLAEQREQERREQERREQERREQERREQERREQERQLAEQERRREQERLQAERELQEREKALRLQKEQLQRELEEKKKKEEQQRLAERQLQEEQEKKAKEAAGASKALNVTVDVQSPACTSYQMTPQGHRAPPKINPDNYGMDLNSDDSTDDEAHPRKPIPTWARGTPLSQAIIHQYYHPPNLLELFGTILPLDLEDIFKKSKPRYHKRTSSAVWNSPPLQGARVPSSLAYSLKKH
# experiment.notes: HTRF kinase assay, AuroraB/INCENP complex
# measurement.setup: 20 μM ATP, HTRF; read-out: IC50 Aurora B in complex with INCENP (biochemical)
observed.property: IC50 (nM)
Report only the number, with the unit nM understood.

Indicate its recorded IC50; the compound in question is `CCc1ccc(N=C2SC(=Cc3ccnc(Nc4ccc(C(=O)O)cn4)c3)C(=O)N2C)cc1` 149
